# target_desc: human Opioid Receptor Mu (Opiate Mu), OPRM1 (gene 4988) (UniProt P35372)
# Sequence (P35372 whole entry, looked up): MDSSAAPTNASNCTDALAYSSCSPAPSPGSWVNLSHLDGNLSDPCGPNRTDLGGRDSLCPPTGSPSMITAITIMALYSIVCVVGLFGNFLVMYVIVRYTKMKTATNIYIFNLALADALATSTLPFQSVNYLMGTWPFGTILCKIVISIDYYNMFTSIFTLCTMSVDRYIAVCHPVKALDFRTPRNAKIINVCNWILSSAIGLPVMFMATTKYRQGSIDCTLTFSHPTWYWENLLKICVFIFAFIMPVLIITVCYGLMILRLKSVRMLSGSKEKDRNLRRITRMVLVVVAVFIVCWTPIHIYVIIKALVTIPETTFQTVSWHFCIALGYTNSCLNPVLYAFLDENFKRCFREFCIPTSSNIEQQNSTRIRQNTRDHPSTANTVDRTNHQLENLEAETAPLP
# test_description: NVS_GPCR_hOpiate_mu: NovaScreen (NVS) G Protein-Coupled Receptor Assay for human Opioid Receptor Mu (Opiate Mu) (AID 2283290);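 note: hits lower bound tracer signal versus DMSO meaning displacement of the ligand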
# Experimental: NVS_GPCR_hOpiate_mu is a biochemical, single-readout assay that uses extracted gene-proteins from CHO in a cell-free assay. Measurements were taken 2.5 hours after chemical dosing in a 96-well plate.NVS_GPCR_hOpiate_mu is one of one assay component(s) measured or calculated from the NVS_GPCR_hOpiate_mu assay. […] This assay endpoint, NVS_GPCR_hOpiate_mu, was analyzed in the positive analysis fitting direction relative to DMSO as the negative control and baseline of activity. […]
Records with an inconclusive call do not appear. Active and inactive are the calls of the source. Rule for the calls: active = hit-call score of the fitted dose curve at least 0.9, where 1 is the maximum; inconclusive = response in the unintended direction; inactive = score below 0.9.

# smiles_repr, target_desc, outcome
rows = [
    ("CCN(CC)C(=S)SSC(=S)N(CC)CC", "human Opioid Receptor Mu (Opiate Mu), OPRM1 (gene 4988) (UniProt P35372)", "inactive"),
    ("CCCCCCCC/C=C\\CCCCCCCC(=O)OC[C@@H](O)[C@H]1OC[C@H](O)[C@H]1O", "human Opioid Receptor Mu (Opiate Mu), OPRM1 (gene 4988) (UniProt P35372)", "inactive"),
    ("CCCCCCCCCCCCCCO", "human Opioid Receptor Mu (Opiate Mu), OPRM1 (gene 4988) (UniProt P35372)", "inactive"),
]

###

# Read-out: NAD(P)H dehydrogenase [quinone] 1 (NQO1), NQO1 (gene 1728)
# test_description: LTEA_HepaRG_NQO1: Life Technologies and Expression Analysis (LTEA) Assay for NAD(P)H dehydrogenase [quinone] 1 (NQO1) using HepaRG (AID 2283526)
# setup_conditions: mRNA level, 48 h; actives raise or lower the signal
Activity calls are given as the source filed them. Rule for the calls: active = hit-call score of the fitted dose curve at least 0.9, where 1 is the maximum; inactive = score below 0.9.
The reply should be one of these categories: label 1 (active), label 0 (inactive)

The following compounds have reported results that may help.
# compound, assigned_label
rows = [
    ("CCCCCCCCCCCCCCCCOS(=O)(=O)O", "label 0"),
    ("NC(=O)N1c2ccccc2C=Cc2ccccc21", "label 0"),
    ("NNC(=O)c1ccncc1", "label 0"),
]

Request: Please state the recorded outcome for this compound: CCCC(CCC)C(=O)O
Response: label 0

Request: Please state the recorded outcome for this compound: CCCCCCCC/C=C\CCCCCCCC(=O)OC[C@@H](O)[C@H]1OC[C@H](O)[C@H]1O
Response: label 0

Request: Please state the recorded outcome for this compound: CCCCC(CC)C(=O)OCCOCCOCCOC(=O)C(CC)CCCC (centres undefined)
Response: label 0

Request: Please state the recorded outcome for this compound: O=S1(=O)CCCO1
Response: label 0

Request: Please state the recorded outcome for this compound: CCc1cccc(CC)c1N
Response: label 0

Request: Please state the recorded outcome for this compound: C=CCc1cc(S(=O)(=O)c2ccc(O)c(CC=C)c2)ccc1O
Response: label 0

Request: Please state the recorded outcome for this compound: CCCCCCCCN(C)C
Response: label 0

Request: Please state the recorded outcome for this compound: c1ccc2c(c1)-c1cccc3c1c-2cc1ccccc13
Response: label 0

Request: Please state the recorded outcome for this compound: CCCCN1C(=O)[C@@H]([C@H](O)C2CCCCC2)NC(=O)C12CCN(Cc1ccc(Oc3ccc(C(=O)O)cc3)cc1)CC2
Response: label 1

Request: Please state the recorded outcome for this compound: O=C(O)c1cccc(C(=O)O)c1
Response: label 0

Request: Please state the recorded outcome for this compound: NC(=O)NN=Cc1ccc([N+](=O)[O-])o1
Response: label 1

###

# Read-out: Monocyte Chemoattractant Protein-1 (MCP1), CCL2 (gene 6347)
# test_description: BSK_4H_MCP1: BioMAP Diversity Plus: 4H Assay for Monocyte Chemoattractant Protein-1 (MCP1) Biomarker Activity (AID 2283018)
# setup_conditions: primary human endothelial cells (HUVEC); actives raise or lower the signal
Active and inactive are the calls of the source. The calls were made as follows: active = hit-call score of the fitted dose curve at least 0.9, where 1 is the maximum; inactive = score below 0.9.
The reply should be one of these categories: YES (active), NO (inactive)

The following compounds have reported results that may help.
# compound, assigned_label
measured = [
    ("CCc1cccc(CC)c1N", "NO"),
    ("CCn1nc(C)c2c1C(=O)NCC(c1ccc(O)cc1)=N2", "NO"),
    ("CCCCCCCC/C=C\\CCCCCCCC(=O)OC[C@@H](O)[C@H]1OC[C@H](O)[C@H]1O", "NO"),
    ("CC(C)c1nnc2ccc(-c3ocnc3-c3cc(F)ccc3F)cn12", "NO"),
    ("Cc1ccc(S(=O)(=O)NC(=O)NN2CCCCCC2)cc1", "NO"),
    ("c1ccc2ncccc2c1", "NO"),
    ("c1ccc(C(O[C@@H]2CCCN(CCc3ccc4c(c3)OCO4)C2)c2ccccc2)cc1", "YES"),
    ("OC(Cn1cncn1)(Cn1cncn1)c1ccc(F)cc1F", "NO"),
    ("S=P(N1CC1)(N1CC1)N1CC1", "NO"),
    ("FC(F)C(F)(F)COCC1CO1 (centres undefined)", "NO"),
]

Request: Please state the recorded outcome for this compound: OCc1ccccc1
Response: NO

Request: Please state the recorded outcome for this compound: CCCCCCCCCC
Response: NO

Request: Please state the recorded outcome for this compound: Cc1ncc([C@@H](CCCCCCc2ccc3c(n2)NCCC3)CC(=O)O)cn1
Response: NO

Request: Please state the recorded outcome for this compound: C[C@@H](Oc1ccc(CNC(=O)c2cccnc2Oc2ccc3c(c2)OCO3)c(F)c1)C(=O)O
Response: NO

Request: Please state the recorded outcome for this compound: CCCCCCCCN(C)C
Response: NO

Request: Please state the recorded outcome for this compound: FC(F)=C(F)C(F)(F)C(F)(F)C(F)(F)C(F)(F)C(F)(F)C(F)(F)F
Response: NO

###

# Read-out: Cytochrome P450 3A7 (Homo sapiens)
# test_description: LTEA_HepaRG_CYP3A7: Life Technologies and Expression Analysis (LTEA) Assay for CYP3A7 using HepaRG (AID 2283492)
# setup_conditions: mRNA level, 48 h; actives raise or lower the signal
The source made the active and inactive calls. Rule for the calls: active = hit-call score of the fitted dose curve at least 0.9, where 1 is the maximum; inactive = score below 0.9.
The reply should be one of these categories: active, inactive

The following compounds have reported results that may help.
# compound, assigned_label
measured = [
    ("CCCc1ccccc1", "inactive"),
    ("CCCCC(CC)C(=O)OCCOCCOCCOC(=O)C(CC)CCCC (stereo not given)", "inactive"),
    ("CCCCCCCCN(C)C", "inactive"),
    ("O=S1(=O)CCCO1", "inactive"),
]

Request: Please state the recorded outcome for this compound: CCCCN1C(=O)[C@@H]([C@H](O)C2CCCCC2)NC(=O)C12CCN(Cc1ccc(Oc3ccc(C(=O)O)cc3)cc1)CC2
Response: active

Request: Please state the recorded outcome for this compound: CCCOc1ccc(S(=O)(=O)N2CCN(CC)CC2)cc1-c1nc2c(CC)n(Cc3ccccn3)nc2c(=O)[nH]1
Response: active

Request: Please state the recorded outcome for this compound: CNC(C)=O
Response: inactive

Request: Please state the recorded outcome for this compound: C[C@@H](Oc1ccc(CNC(=O)c2cccnc2Oc2ccc3c(c2)OCO3)c(F)c1)C(=O)O
Response: inactive

Request: Please state the recorded outcome for this compound: OCC(CO)(CO)CO
Response: inactive

###

# Read-out: Interferon-gamma inducible Protein 10 (IP10), CXCL10 (gene 3627)
# test_description: BSK_BE3C_IP10: BioMAP Diversity Plus: BE3C Assay for Interferon-gamma inducible Protein 10 (IP10) Biomarker Activity (AID 2283034)
# setup_conditions: primary human bronchial epithelial cells; actives raise or lower the signal
Active and inactive are the calls of the source. Rule for the calls: active = hit-call score of the fitted dose curve at least 0.9, where 1 is the maximum; inactive = score below 0.9.
value_kind: AC50

Some solved cases for reference:
# compound, AC50
data = [
    ("COc1cc(C(C)C)c2c(c1)S(=O)(=O)N(COc1cc(=O)n3cccc(OCCN4CCCCC4)c3n1)C2=O", "7.41 µM (active)"),
    ("O=C(O)c1ccc2c(c1)nc(C(=O)NC1CCN(C3CC3)CC1)n2Cc1cc(-c2ccc(Cl)s2)on1", "inactive"),
    ("OCc1c[nH]c2ccccc12", "5.95 µM (active)"),
    ("Nc1ccn([C@@H]2O[C@H](CO)[C@@H](O)[C@@H]2O)c(=O)n1", "inactive"),
    ("CCN(CC)C(=S)SSC(=S)N(CC)CC", "25.5 µM (active)"),
    ("NNC(=O)c1ccncc1", "inactive"),
    ("CCOC(N)=O", "inactive"),
    ("CC(C)CCCCCCOC(=O)C1CCCCC1C(=O)OCCCCCCC(C)C (stereo unspecified)", "inactive"),
]

Request: Indicate its recorded AC50; the compound in question is O=C(NO)C1(NS(=O)(=O)c2ccc(Oc3ccc(F)cc3)cc2)CCOCC1
Response: inactive

Request: Indicate its recorded AC50; the compound in question is Cn1cc[nH]c1=S
Response: inactive
